Molecular target: T1, hPD-1-Fc (human, UniProt Q15116 25-167)
T1 construct: domain: IgV domain; also called human PD-1-Fc; not shown: human IgG1 Fc
T1 sequence (Q15116 25-167 limits assumed): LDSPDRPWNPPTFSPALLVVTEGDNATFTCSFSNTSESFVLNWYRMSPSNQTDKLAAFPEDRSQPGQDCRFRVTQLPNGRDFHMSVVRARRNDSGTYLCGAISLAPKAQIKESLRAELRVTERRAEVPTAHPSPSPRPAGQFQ
Test: SPR Biacore, hPD1-Fc
Give measured koff for each item. Keep answers brief.
Give just the number in s⁻¹; leave the unit off.

Query block: Give reported koff value for m3A7 (antibody, V domains shown, R3A9 derivative; also called 7115C) VH: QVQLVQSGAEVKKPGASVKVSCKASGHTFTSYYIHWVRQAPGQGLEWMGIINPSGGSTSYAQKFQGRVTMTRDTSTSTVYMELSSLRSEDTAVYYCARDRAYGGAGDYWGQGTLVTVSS VL: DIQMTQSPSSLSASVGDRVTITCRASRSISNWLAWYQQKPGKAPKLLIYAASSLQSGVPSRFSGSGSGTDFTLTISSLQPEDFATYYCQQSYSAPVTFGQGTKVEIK
Result block: 0.0176

Query block: Please give the documented koff of m2A1 (antibody, V domains shown, R3A9 derivative; also called m2AM (apparent misprint)) VH: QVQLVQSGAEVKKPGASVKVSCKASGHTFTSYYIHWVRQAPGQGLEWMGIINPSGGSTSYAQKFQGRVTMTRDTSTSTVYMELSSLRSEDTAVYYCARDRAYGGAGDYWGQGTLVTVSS VL: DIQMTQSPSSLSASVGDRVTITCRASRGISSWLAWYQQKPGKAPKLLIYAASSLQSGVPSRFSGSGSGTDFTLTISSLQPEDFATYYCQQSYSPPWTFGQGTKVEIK
Result block: 0.000401

Query block: Tell me measured koff for m2C1 (antibody, V domains shown, R3A9 derivative; also called m3CM (apparent misprint)) VH: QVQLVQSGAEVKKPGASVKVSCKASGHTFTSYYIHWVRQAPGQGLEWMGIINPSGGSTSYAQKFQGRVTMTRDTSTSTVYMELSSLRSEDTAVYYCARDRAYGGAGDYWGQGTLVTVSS VL: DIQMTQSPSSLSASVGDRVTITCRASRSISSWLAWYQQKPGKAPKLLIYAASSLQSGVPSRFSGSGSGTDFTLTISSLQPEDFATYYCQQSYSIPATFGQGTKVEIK please.
Result block: 0.000355

Query block: Quickly give me recorded koff for 38B2 (antibody, V domains shown, 24H9 derivative, IgG; also called 780_54; hPD1 Ab (38B2)) VH: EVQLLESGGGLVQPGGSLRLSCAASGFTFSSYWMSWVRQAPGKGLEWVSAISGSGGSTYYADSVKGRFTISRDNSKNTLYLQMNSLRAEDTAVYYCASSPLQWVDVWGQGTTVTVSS VL: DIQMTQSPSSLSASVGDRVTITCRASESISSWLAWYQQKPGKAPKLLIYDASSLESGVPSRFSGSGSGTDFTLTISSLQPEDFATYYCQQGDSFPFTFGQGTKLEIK
Result block: 3.26e-05

Query block: Output koff of m4D1 (antibody, V domains shown, R3A9 derivative) VH: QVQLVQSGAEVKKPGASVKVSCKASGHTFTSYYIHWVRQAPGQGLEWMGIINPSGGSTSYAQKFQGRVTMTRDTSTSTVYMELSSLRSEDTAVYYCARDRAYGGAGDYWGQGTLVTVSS VL: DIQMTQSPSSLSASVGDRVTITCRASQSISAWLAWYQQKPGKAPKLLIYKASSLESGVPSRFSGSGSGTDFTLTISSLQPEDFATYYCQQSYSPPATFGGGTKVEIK
Result block: 6.36e-05
